Source: ChEMBL document CHEMBL1136936

Assay: Plasma Clearance in dog at 0.75 mg/kg, iv
Format: ADME, organism-based, Canis lupus familiaris
Parameters: dose 0.75 mg/kg, route intravenous

>  <SMILES>
O=C(Nc1ccc(C[C@H](NC(=O)[C@@H]2C[C@@H](N3CCC3)CN2S(=O)(=O)c2cc(Cl)cc(Cl)c2)C(=O)O)cc1)c1c(Cl)cncc1Cl

>  <UNITS_SYMBOL>
mL/min/kg

>  <clearance>
29

$$$$

###

Assay: Plasma Clearance in rhesus monkey at 0.75 mg/kg, iv
Type: ADME, organism-based, Macaca mulatta
Parameters: dose 0.75 mg/kg, route intravenous

>  <SMILES>
O=C(Nc1ccc(C[C@H](NC(=O)[C@@H]2C[C@@H](N3CCC3)CN2S(=O)(=O)c2cc(Cl)cc(Cl)c2)C(=O)O)cc1)c1c(Cl)cncc1Cl

>  <clearance, mL/min/kg>
33

$$$$
